Cited source: PubChem BioAssay (NCI)

Tested on: SK-MEL-2 melanoma
Test: NCI tumour cell line growth inhibition, 48 h
observation-type: GI50

The following compounds have reported results that may help.
{"columns": ["compound", "assay-value"],
 "data": [
  ["COc1ccc(-c2cc3c4c(nc5ccccc5c4c2)CC(c2cc(OC)c(OC)c(OC)c2)O3)cc1 (stereo not given)", "3.44 µM"],
  ["Cn1ncc2cc(-c3cnc(N)c(Cl)c3N3CCC4(CCNC4=O)CC3)ccc21", "39.8 µM"],
  ["O=C(c1ccccc1)c1ccc(-c2ccc(O)cc2)cc1", "6.95 µM"],
  ["COc1cc(-c2c3c(cn2S(=O)(=O)c2ccccc2)-c2nc(N)sc2CC3)cc(OC)c1OC", "0.596 µM"]
]}

Ask: # returns recorded GI50 (system: SK-MEL-2 melanoma) for COc1ccccc1-c1cc2c3c(nc4ccccc42)C(=O)c2cccnc2-c3n1
Result: 17.5 µM

----------
System: HOP-62 NSCLC
Assay: NCI tumour cell line growth inhibition, 48 h; in the data active means GI50 below about 0.43 µM; inactive means the rest
Where a SMILES comes first, the peptide text is derived from it. [ ]: non-standard residue; d: D form. The star is where a group is joined. ξ: configuration not given here. X16 = COC1=CC(=O)N(C(=O)C(O*)C(C)C)C1Cc1ccccc1; ξNMe2Val = CC(C)C(C(=O)*)N(C)C; NMeV = CN[CH](C(=O)O)C(C)C
Choose one outcome from this list and give only that: active, inactive

# example entries with known answers
{"columns": ["molecule", "assigned-label"],
 "data": [
  ["O=C(c1ccccc1)c1ccc(-c2ccc(O)cc2)cc1", "inactive"],
  ["O=C(NNc1nc2cc(F)ccc2n2c(CN3CCOCC3)ccc12)c1ccccc1", "active"],
  ["COC1=CC(=O)N(C(=O)C(OC(=O)C2CCCN2C(=O)C2CCCN2C(=O)C(C(C)C)N(C)C(=O)C(NC(=O)C(C(C)C)N(C)C)C(C)C)C(C)C)C1Cc1ccccc1 (stereo not given) (ξNMe2Val-V[NMeV]PP-X16; configuration not given here)", "active"],
  ["CCN(CC)c1ccc(NC(C(=O)c2ccccc2)c2ccccc2)cc1 (stereo not given)", "inactive"]
]}

Then there is this molecule:
Ask: So what was the verdict on CCCC[C@@H]1NC(=O)[C@H](CCCCN)NC(=O)[C@H](CCCNC(=N)N)NC(=O)[C@H](CC(C)C)NC(=O)[C@@H](NC(=O)[C@H](Cc2cccc(Cl)c2)NC(=O)[C@@H]2CCCN2C(=O)[C@@H](NC(C)=O)C(C)C)CCSSC[C@@H](C(=O)N[C@@H](CCCCN)C(=O)N2CCC[C@H]2C(=O)N2CCC[C@H]2C(=O)N[C@@H](CCC(=O)O)C(N)=O)NC(=O)[C@H](Cc2ccccc2)NC(=O)[C@H](CO)NC(=O)[C@H](C)NC(=O)[C@@H]2CCCN2C1=O in this test?
Result: inactive

----------
System: T-47D breast
Assay: NCI tumour cell line growth inhibition, 48 h
Catalogue of TGI readings, one per entry.

The examples below pair each entry with its known result.
{"columns": ["compound", "assay-value"],
 "data": [
  ["CN(C)CC1CCC/C(=C\\c2ccc(N(C)C)cc2)C1=O (stereo unspecified)", "4.11 µM"],
  ["O=C1Nc2ccccc2C(=O)OC(Cc2ccccc2)=Nc2ccccc21", "> 100 µM"],
  ["Cc1c(Cl)cccc1NC(=O)CC1Sc2ccccc2NC1=O (stereo unspecified)", "86.5 µM"],
  ["COc1ccc2c(O)c3[n+](cc2c1OC)CCc1cc2c(cc1-3)OCO2", "> 100 µM"],
  ["CC12CC3c4ccccc4CN1C3(c1ccccc1)OC2=O (stereo unspecified)", "> 100 µM"]
]}

Ask: Would you kindly share the measured TGI for Nc1ccccc1C#C/C=C\C#Cc1ccc(F)cc1F ?
Result: > 100 µM

----------
Tested on: U251 CNS
Assay: NCI tumour cell line growth inhibition, 48 h
Listed here: items and their measured TGI.

{"columns": ["compound", "observation-type", "assay-value"],
 "data": [
  ["O=C1C(=O)c2ccc(Br)cc2-c2cc(Br)ccc21", "TGI", "9.04 µM"],
  ["O=C1C=C(SCCO)C(=O)c2ccccc21", "TGI", "3.25 µM"],
  ["O=S(=O)(O)c1cc(Cl)c(O)c2ncc(Cl)cc12", "TGI", "> 100 µM"],
  ["N#CI1OC(=O)c2ccccc21", "TGI", "> 100 µM"],
  ["COC(=O)[C@]1(C)CCCn2c(=O)n(-c3ccccc3)c(=O)n21", "TGI", "> 100 µM"],
  ["CC1=C/C(=C(\\c2ccc(N(C)C)cc2)c2ccc([N+](C)(C)C)cc2)C=CC1=[N+](C)C", "TGI", "17.6 µM"],
  ["O=[N+]([O-])/C(C(Cl)=C(Cl)Cl)=C1\\Nc2ccccc2O1", "TGI", "> 100 µM"],
  ["CCOC(=O)NNC(=O)NCCNC(=O)NNC(=O)OCC", "TGI", "> 100 µM"],
  ["OCC1SC(n2cnc3cncnc32)C(O)C1O (configuration not stated)", "TGI", "> 100 µM"],
  ["CCOC(=O)C(NCc1ccccc1)(NC(=O)c1ccccc1)C(F)(F)F (configuration not stated)", "TGI", "> 100 µM"]
]}

Ask: // map C=C1C(=O)O[C@@H]2C[C@]3(C)[C@@H](C[C@H]12)[C@](C)(O)CC[C@@H]3O to recorded TGI (system: U251 CNS)
Result: > 100 µM

Ask: So what TGI did COC1/C=C\C=C(/C)C(=O)NC2=CC(=O)C(NCCCl)=C(CC(C)CC(OC)C(O)C(C)/C=C(/C)C1OC(N)=O)C2=O (configuration not stated) get with U251 CNS?
Result: 4.14 µM

Ask: Checklist item: TGI tested on U251 CNS, entry COc1ccc2c(c1O)-c1c(OC)c(OC)cc3c1[C@H](C2)[N+](C)(C)CC3 , value?
Result: > 100 µM

Ask: Find the measured TGI: item CO/N=C(\c1ccccc1)c1cnn(-c2ccccc2)c1N , target or system U251 CNS.
Result: > 25 µM

Ask: Record lookup: for U251 CNS, what TGI belongs to O=C(CC12CC3CC(CC(C3)C1)C2)NCCOCCOCCNC(=O)c1cc2c(o1)C(=O)c1ccccc1C2=O ?
Result: 2.81 µM

Ask: Tell me reported TGI for CCCCN(CC)C(=O)C(=O)C1C(=O)Nc2ccccc2S1=O (configuration not stated) , tested with U251 CNS.
Result: > 100 µM

----------
Tested on: SK-OV-3 ovarian
Experiment: NCI tumour cell line growth inhibition, 48 h
observation-type: TGI

Ask: Endpoint output: TGI of COc1ccc2c(c1)O/C(=C\c1cccc(OCC(=O)Nc3nc4ccccc4s3)c1)C2=O . Value?
Result: > 100 µM

Ask: Reported TGI for O=C(Cc1ccccc1)Oc1ccc2c(-c3ccccc3)c(C(=O)Nc3ccc(Cl)cc3)c(=O)oc2c1 : what is it?
Result: > 100 µM

Ask: Find the recorded TGI belonging to CC1(C)CCC(S(=O)(=O)c2ccc3c(c2)/C(=N\O)c2cc(S(=O)(=O)N4CCC(O)(c5cccc(C(F)(F)F)c5)CC4)ccc2-3)CC1 and report it.
Result: 0.0593 µM

----------
Tested on: ACHN renal
Experiment: NCI tumour cell line growth inhibition, 48 h
observation-type: TGI

{"columns": ["compound", "TGI"],
 "data": [
  ["COc1c2cc(C(C)(C)C)cc1CSCc1cc(C(C)(C)C)cc(c1OC)CCCCC2", "> 50 µM"]
]}

Ask: Please provide the recorded TGI for O=[N+]([O-])/C(C(Cl)=C(Cl)Cl)=C1\Nc2ccccc2O1 , tested on ACHN renal.
Result: > 100 µM

Ask: Which TGI is reported with ACHN renal for this entry: C=C1C(=O)O[C@H]2[C@H]1CC/C(COC(=O)OCCCCCOC(=O)OC/C1=C/CC[C@@]3(C)O[C@H]3[C@H]3OC(=O)C(=C)[C@@H]3CC1)=C\CC[C@@]1(C)O[C@@H]21 ?
Result: 0.341 µM

Ask: Query for ACHN renal: what TGI does the record show for CN1CC(c2ccccc2)=Cc2c1ccc(N)c2N=N ?
Result: > 100 µM

----------
Test system: K-562 leukemia
Assay: NCI tumour cell line growth inhibition, 48 h
// GI50 lookup, one value per entry

Consider the following illustrative entries.
{"columns": ["compound", "assayed-system", "assay-value"],
 "data": [
  ["O=C(NCc1cn(Cc2cccc(Oc3ccccc3)c2)nn1)c1cccnc1Nc1ccccc1", "K-562 leukemia", "3.69 µM"],
  ["COCCNCC(O)Cn1c2ccc(Cl)cc2c2cc(Cl)ccc21 (stereo unspecified)", "K-562 leukemia", "2.19 µM"]
]}

Ask: What value of GI50 has been recorded for this entry: Cc1cc(N(CCCl)CCCl)ccc1C=Nc1cccnc1
Result: 34.7 µM

Ask: Bench note: what GI50 did OCC1SC(n2cnc3cncnc32)C(O)C1O (stereo unspecified) show?
Result: > 100 µM

Ask: Item under review: CN(C(=O)C1CCCCC1)c1ccccc1I(=O)=O . Reported GI50?
Result: 12.5 µM

Ask: Report GI50 for c1ccc2c(c1)O[As](O[As]1Oc3ccccc3O1)O2 please.
Result: 1.66 µM
